Test system: PAK3;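 further: KINOMEscan scanMAX binding as percent activity remaining versus control; lower means stronger binding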
condition: Compound Concentration (nM):1000
Could you please classify the records by Percent Control using these ranges: lower: < 10%; middle: ≥ 10% and < 70%; upper: ≥ 70%

Solved entries:
[
  {
    "compound": "COc1cc2ncn(-c3cc(O[C@H](C)c4ccccc4Cl)c(C(N)=O)s3)c2cc1OC [GSK237701A]",
    "assigned-label": "lower"
  },
  {
    "compound": "Cl.O=S1CCN(Cc2ccc(-c3ccc4ncnc(Nc5ccc(OCc6ccccc6)c(F)c5)c4c3)o2)CC1 [GW576924A]",
    "assigned-label": "upper"
  }
]

input: Class for Cl.O=C(Nc1ccc(Oc2ccc3[nH]c(NC(=O)c4ccco4)nc3c2)cc1)Nc1cc(C(F)(F)F)ccc1F [GW683134A] ?
output: lower

input: Class for COc1cccc(-c2c[nH]c3c(N/N=C/c4ccncc4)ncnc23)c1 [GW814408X] ?
output: lower

input: Class for CN(C)c1cc2c(Nc3ccc4c(cnn4Cc4ccccc4)c3)ncnc2cn1 [GW282974X] ?
output: middle
